These entries and their values trace back to paper PMC5620277.

# run.description: PAMPA-BBB (porcine brain lipid extract artificial membrane)
# Format: in vitro ADME
# conditions.used: Pe in cm/s, pH 7.4, 24 h, room temperature, triplicate, read-out: Log Pe (converted)
assay.endpoint: Papp at 24 h (×10⁻⁶ cm/s)
Respond with the bare value in ×10⁻⁶ cm/s.

{"columns": ["compound", "Papp at 24 h (×10⁻⁶ cm/s)"],
 "data": [
  ["Cc1cc(C)c(CNC(=O)c2cnn(-c3ccccc3)c2C)c(=O)[nH]1", 4.68]
]}

// sample CC[C@H](C)n1cc(C)c2c(C(=O)NCc3c(C)cc(C)[nH]c3=O)cc(-c3ccc(N4CCNCC4)nc3)cc21 [GSK2816126, reference compound] , its Papp at 24 h was 3.89

Entry CC(C)NCC(O)COc1cccc2ccccc12 (stereo not drawn) — recorded Papp at 24 h = 6.17

====

# tested.system: EZH2/PRC2 (Homo sapiens)
# Construct: (amino acids 2-end) with N-terminal His tag; His tag (N); host or cells: baculovirus expression system
# run.description: EZH2/PRC2 cell free enzymatic assay (3H-SAM, filter-paper detection)
# Assay type: biochemical
# conditions.used: range over histone substrates (histone H3/H4 octamer, H3/H4 tetramer, histone H3, core histone); SAM co-substrate; 10-dose, 2-fold dilution from 400 μM; read-out: IC50 values, EZH2/PRC2
assay.endpoint: IC50

Value of IC50 reported for the compound `Cc1cc(C)c(CNC(=O)c2cnn(-c3ccccc3)c2C)c(=O)[nH]1` is 5.27 to 15.4 µM

====

# tested.system: EZH2/PRC2 (Homo sapiens)
# Construct: (amino acids 2-end) with N-terminal His tag; His tag (N); host or cells: baculovirus expression system
# run.description: EZH2/PRC2 cell free enzymatic assay (3H-SAM, filter-paper detection)
# Assay type: biochemical
# conditions.used: histone H3/H4 tetramer substrate; value printed in Figure 2B; read-out: IC50, EZH2/PRC2
assay.endpoint: IC50 (µM)
Report the value in µM with no unit label.

For record `Cc1cc(C)c(CNC(=O)c2cnn(-c3ccccc3)c2C)c(=O)[nH]1` the listed IC50 is 5.27
